System: U-251
Assay: NCI tumour cell line growth inhibition, 48 h
Activity calls are given as the source filed them. No stated cut-off is given here; in the data, active = GI50 up to about 1.1 µM and inactive = higher.

# compound, GI50
records = [
    ("N=C(N)c1ccc2oc3ccc(C(=N)N)cc3c(=O)c2c1", "> 100 µM (inactive)"),
    ("CC1(C)C/N=C/C(C)(OCc2ccccc2)C(=O)NC(C)(C)C/N=C/C(C)(OCc2ccccc2)C(=O)N1 (centres undefined)", "> 10 µM (inactive)"),
    ("O=C1Nc2nc3ccccc3n2N=C2CCCC12 (centres undefined)", "> 100 µM (inactive)"),
    ("O=[N+]([O-])c1cc(-c2nnc(C34CC5CC(CC(C5)C3)C4)o2)cc([N+](=O)[O-])c1", "45.5 µM (inactive)"),
    ("CCCCCCCCCCCCCCCCOCC(CC(F)(F)P(=O)(O)O)OC(C)=O (centres undefined)", "> 50 µM (inactive)"),
    ("C/C(=N\\Nc1nc2ccccc2o1)c1cccc[n+]1[O-]", "8.26 µM (inactive)"),
    ("CC(C)(CN1CCCCC1)C(=O)/C=C/c1ccc(Cl)cc1", "3.51 µM (inactive)"),
    ("CC(O)CN1C(=O)NC(Cc2ccccc2)C1=O (centres undefined)", "> 100 µM (inactive)"),
    ("O=C(O)c1cccc(/[As]=[As]\\c2cccc(C(=O)O)c2)c1 (centres undefined)", "15.7 µM (inactive)"),
    ("COc1ccc2nc3ccc(OC)cc3c(SCCO)c2c1", "65 µM (inactive)"),
    ("C=CCN(c1cc(OC)c2[nH]cc(C)c2c1[N+](=O)[O-])S(C)(=O)=O", "> 100 µM (inactive)"),
    ("COC(=O)c1c(C)c2c(c(C)c1C(=O)OC)-c1c(C)ccc3ccc(C)c-2c13", "58.9 µM (inactive)"),
    ("CC[N+]1(C)CCC(O)(/C=C/c2ccc(Cl)c(Cl)c2)C(C(=O)/C=C/c2ccc(Cl)c(Cl)c2)C1 (centres undefined)", "1.77 µM (inactive)"),
    ("O=CN/C=C/c1cc(O)ccc1O [ERBSTATIN]", "42.3 µM (inactive)"),
]

---

Measured GI50, listed per entry for reference.
Test system: HT-29
Experiment: NCI tumour cell line growth inhibition, 48 h
Calls of active or inactive are those of the source. Cut-off read from the data, not from the text of the source: active = GI50 up to about 1.1 µM and inactive = higher.

# molecule, GI50
rows = [
    ("C=C(C)CC1=C(C(=S)NCCO[Si](C)(C)C(C)(C)C)C(OCC)(OCC)C1=O", "9.59 µM (inactive)"),
    ("C#CCNCC(=O)O", "> 100 µM (inactive)"),
    ("CN(C)c1n/c(=N/Cc2cccnc2)ss1", "> 10 µM (inactive)"),
    ("COC12OCCN(CCO)C1=CC(=O)C1(C)N=NC(C)C12 (centres undefined)", "> 100 µM (inactive)"),
]

---

Measured GI50 accompanies every entry in the list below.
Tested on: NCI-H522
Experiment: NCI tumour cell line growth inhibition, 48 h
The source made the active and inactive calls. No stated cut-off is given here; in the data, active = GI50 up to about 1.1 µM and inactive = higher.
property: GI50

# compound, measured-result
data = [
    ("CN1C(=O)C(=CNc2ccccc2[N+](=O)[O-])C(=O)N(C)C1=O", "> 100 µM (inactive)"),
    ("N#CC(C(=O)/C(=N/N)C(C#N)c1ccc(Cl)cc1)c1ccc(Cl)cc1 (stereo unspecified)", "> 100 µM (inactive)"),
    ("C[C@@H]1CC(=O)[C@@]2(C)[C@](O)(CCC3O[C@]32C)[C@@]12CC(c1ccoc1)OC2=O (stereo partly specified)", "45.6 µM (inactive)"),
    ("CC(C)(C)OC(=O)[C@@H]1CCC(=S)N1Cc1ccccc1", "> 100 µM (inactive)"),
    ("COc1ccc2c(c1)c1c(n2CCN(C)C)-c2ccccc2CC1", "18.5 µM (inactive)"),
    ("CCOC(=O)CNC(=O)NC12CC3CC(CC(C3)C1)C2", "142 µM (inactive)"),
    ("Cc1ccc(S(=O)(=O)NC(=O)OC23COCN2COC3)cc1", "> 100 µM (inactive)"),
    ("Cc1cc(O)c2c(c1O)C(=O)C13C(=C(O)C4C(O)C1C1C(O)C3C(O)=C3C(=O)c5c(O)cc(C)c(O)c5C(=O)C341)C2=O (stereo unspecified)", "0.185 µM (active)"),
    ("C=CCc1cccc2cc(C(=O)Nc3ccc(C)cc3)c(=N)oc12", "> 100 µM (inactive)"),
    ("CC(NNC(=O)c1ccncc1)c1ccc(Cl)cc1Cl (stereo unspecified)", "> 100 µM (inactive)"),
    ("C/C(=N\\OCC(O)CNCCSCc1ccccc1)c1ccccc1Cl (stereo unspecified)", "28.7 µM (inactive)"),
    ("C=C(C)CC1=C(OCC)C(OC)(OCC)C1=O (stereo unspecified)", "47.8 µM (inactive)"),
    ("c1ccc([P+](c2ccccc2)(c2ccccc2)c2ccc(-c3ccc([P+](c4ccccc4)(c4ccccc4)c4ccccc4)cc3)cc2)cc1", "18.3 µM (inactive)"),
    ("CCCCCCCCCCCCCCCCOCC(CC(F)(F)P(=O)(O)O)OC(C)=O (stereo unspecified)", "> 50 µM (inactive)"),
    ("O=C(O)c1cccc(/[As]=[As]\\c2cccc(C(=O)O)c2)c1 (stereo unspecified)", "17.9 µM (inactive)"),
    ("Cc1ccc(C(=O)/C=C2\\Nc3ccccc3NC2=O)cc1", "2.49 µM (inactive)"),
    ("CC(C)C1=C(O)C(=O)C2=C(C1=O)C(O)CC1C(C)(C)CCCC21C (stereo unspecified)", "21.6 µM (inactive)"),
    ("O=C1c2ccccc2N2Oc3ccccc3C12c1ccccc1 (stereo unspecified)", "> 100 µM (inactive)"),
    ("O=C(OCc1ccccc1)OOC(=O)OCc1ccccc1", "> 100 µM (inactive)"),
    ("CCN(CC)CCN1C(=O)CC2[C@@H]3CCc4cc(OC)ccc4C3CC[C@]2(C)C1=O (stereo partly specified)", "22.3 µM (inactive)"),
    ("Cc1cccc(C)c1NC(=O)Nc1ccc(S(N)(=O)=O)cc1", "> 100 µM (inactive)"),
    ("C=C(C)CNCC(=C)C.Oc1c(Cl)c(Cl)c(Cl)c(Cl)c1Cl", "22 µM (inactive)"),
    ("C=CCn1c(-c2ccc(Cl)cc2Cl)cs/c1=N\\c1c(C)n(C)n(-c2ccccc2)c1=O", "12.2 µM (inactive)"),
    ("Cc1ccc2c3c1[C@@H]1O[C@@H]1c1cccc(c1-3)[C@@H]1O[C@H]21", "12.2 µM (inactive)"),
    ("COc1cc([C@@H]2c3cc4c(cc3[C@H](OC3OC5COC(C(C)C)OC5C(O)C3O)C3COC(=O)[C@@H]32)OCO4)cc(OC)c1O (stereo partly specified)", "14 µM (inactive)"),
    ("CN(C)CCn1c(CO)nc2c1c(=O)n(C)c(=O)n2C", "> 100 µM (inactive)"),
]
